B1: Ankyrin repeat and SAM domain-containing protein 6, residues 774 to 836; numbered along this chain, Q68DC2 (parent)
chain: DEDELTGILKKLSLEKYQPIFEEQEVDMEAFLTLTDGDLKELGIKTDGSRQQILAAISELNAG

Variants of: B1
Protocol description: abundance fitness (aPCA) (normalised: wild type 0, dead -1); higher = more abundant; growth selection in yeast, the domain comes from the species named
Study conditions: Homo sapiens
Endpoint label: abundance fitness

Exercise: Looking for the measured abundance fitness of "I53D" , can you help?
Solution: -0.33

Exercise: What do we get for "T35C" ?
Solution: -0.363

Exercise: What do we get for "F21H" ?
Solution: -0.629

Exercise: What do we get for "Q18G" ?
Solution: -0.078

Exercise: What do we get for "T46C" ?
Solution: 0.016

Exercise: What do we get for "D38W" ?
Solution: -0.965

Exercise: What do we get for "D1Q" ?
Solution: 0.002

Exercise: What do we get for "I20Q" ?
Solution: -0.083

Exercise: What do we get for "F31H" ?
Solution: -0.586

Exercise: What do we get for "A30H" ?
Solution: 0.037

Exercise: What do we get for "L34G" ?
Solution: -0.551
